Measured Slope (experimental), listed per entry for reference.
# assay_details: Determination of S from retention time shift Δ relative to P3 at two gradient slopes, nano-RP-HPLC MS of spiked tryptic digest
# Assay type: physicochemical
# particulars: experimental S, LC-MS runs of model peptide mixture, formic acid
The answer should be a number; do not append a unit.

INSERT INTO results (substance, data_value) VALUES
  ('DLEEGIQTLMGR', 26.684);

## Task Entry "KYCGVPGEYWLGNDR" has what Slope (experimental)?
## Result 33.065

## Task Can you share its Slope (experimental)? I mean this substance: "TSHMDCIK"
## Result 40.393

## Task # query: Slope (experimental) of entry "VDSALYLGSR"
## Result 27.122

## Task Any idea what Slope (experimental) was measured for "EEGSVSSGTKQEFHTGK" ?
## Result 48.449

## Task Consider the substance shown here: "CGLVPVLAENR" What is its recorded Slope (experimental)?
## Result 26.128

## Task Sample "YNGVFQECCQAEDK" — what was its Slope (experimental)?
## Result 32.73

## Task What value of Slope (experimental) has been reported for the following substance? "QDGSVDFGR"
## Result 28.518

## Task Suppose we examine the substance "DFPIANGER" ; what Slope (experimental) value has been reported?
## Result 26.539

## Task Looking for the measured Slope (experimental) of "TGLAPEFAALGESGSSSSK" , can you help?
## Result 28.402

## Task Using the record for "DALLFPSFIHSQK" , report its Slope (experimental).
## Result 29.523

## Task Quick check: Slope (experimental) of "VVWCAVGPEEQKK" ?
## Result 33.2

## Task Returns the measured Slope (experimental) for the input substance. Input: "AVLKDGPLTGTYR"
## Result 35.435

## Task Look at this substance and give its reported Slope (experimental). "ALLEMQQTK"
## Result 26.288

## Task Tell me the measured Slope (experimental) of "AAQKPDVLTTGGGNPVGDK" , please.
## Result 41.223

## Task Need Slope (experimental), item "ANEGLTWNSLKDK"
## Result 32.686

## Task Can you share its Slope (experimental)? I mean this substance: "GAGAFGYFEVTHDITR"
## Result 33.608
